Assay: Clearance in mouse at 5 mg/kg, iv
Assay type: ADME, organism-based
Design: dose 5 mg/kg, route intravenous
Settings: in vivo
property-label: clearance

- CN1CCN(c2ccc3nc(-c4c(N)c5c(F)cccc5[nH]c4=O)[nH]c3c2)CC1: 42 mL/min/kg

* * *

Experiment: Clearance in rat at 5 mg/kg, iv
Type: ADME, organism-based
Set-up: dose 5 mg/kg, route intravenous
Conditions: in vivo
property-label: clearance (mL/min/kg)

* CN1CCN(c2ccc3nc(-c4c(N)c5c(F)cccc5[nH]c4=O)[nH]c3c2)CC1 | 43

* * *

Target: Fibroblast growth factor receptor 1 (Homo sapiens)
Assay: Inhibition of human recombinant FGFR1
pIC50: −log10 of the molar value.
I would appreciate it if you labelled entries YES when pIC50 is 7 or higher, otherwise NO.

* Cc1cccc2[nH]c(=O)c(-c3nc4ccc(N5CCN(C)CC5)cc4[nH]3)c(N)c12 | YES
* Nc1c(-c2nc3ccc(OCCN4CCOCC4)cc3[nH]2)c(=O)[nH]c2ccccc12 | YES
* CN1CCN(c2ccc3nc(-c4c(N)c5cc(N)ccc5[nH]c4=O)[nH]c3c2)CC1 | YES
* CN1CCN(c2ccc3nc(-c4c(N)c5cc(F)c(N(C)C)cc5[nH]c4=O)[nH]c3c2)CC1 | NO
* CN1CCN(Cc2ccc3[nH]c(-c4c(N)c5ccccc5[nH]c4=O)nc3c2)CC1 | YES
* CNc1ccc2c(N)c(-c3nc4ccc(N5CCN(C)CC5)cc4[nH]3)c(=O)[nH]c2c1 | NO
* Nc1c(-c2nc3cc(N4CCOCC4)ccc3[nH]2)c(=O)[nH]c2ccccc12 | YES
* CN1CCCN(c2ccc3[nH]c(-c4c(N)c5ccccc5[nH]c4=O)nc3c2)CC1 | YES
* CN1CCCC(Oc2cccc3[nH]c(=O)c(-c4nc5ccccc5[nH]4)c(N)c23)C1 (centres undefined) | YES
* Cn1c(-c2c(O)c3ccccc3[nH]c2=O)nc2ccccc21 | NO
* CN1CCN(c2ccc3nc(-c4c(N)c5cc(NCc6ccccc6)ccc5[nH]c4=O)[nH]c3c2)CC1 | YES
* CN1CCN(c2ccc3nc(-c4c(N)c5cc(C(=O)NCc6ccccc6)ccc5[nH]c4=O)[nH]c3c2)CC1 | YES
* CN1CCN(c2ccc3[nH]c(-c4c(N)c5cccc(F)c5[nH]c4=O)nc3c2)CC1 | NO
* CN1CCN(c2ccc3[nH]c(-c4c(N)c5cc(Cl)ccc5[nH]c4=O)nc3c2)CC1 | YES
* CN1CCN(c2ccc3nc(-c4c(N)c5cc(F)ccc5[nH]c4=O)[nH]c3c2)CC1 | YES
* CN1CCN(C(=O)c2ccc3[nH]c(-c4c(N)c5ccccc5[nH]c4=O)nc3c2)CC1 | YES
* CNc1cccc2[nH]c(=O)c(-c3nc4ccc(N5CCN(C)CC5)cc4[nH]3)c(N)c12 | YES
* Cn1c(=O)c(-c2nc3ccccc3[nH]2)c(O)c2ccccc21 | NO
* O=c1[nH]c2ccccc2c(NCC2CCNCC2)c1-c1nc2ccccc2[nH]1 | NO
* CN1CCN(c2ccc3[nH]c(-c4c(N)c5c(F)cc(F)cc5[nH]c4=O)nc3c2)CC1 | YES
* CN1CCN(c2ccc3[nH]c(=O)c(-c4nc5ccccc5[nH]4)c(N)c3c2)CC1 | NO
* CN1CCN(c2ccc3[nH]c(-c4c(N)c5ccccc5[nH]c4=O)nc3c2)CC1 | YES
* Cn1c(-c2c(O)c3ccccc3n(C)c2=O)nc2ccccc21 | NO
* CN(C)[C@H]1CCN(c2ccc3[nH]c(-c4c(N)c5ccccc5[nH]c4=O)nc3c2)C1 | YES
* Nc1c(-c2nc3ccccc3[nH]2)c(=O)[nH]c2ccccc12 | YES
* CN(C)c1c(-c2nc3ccccc3[nH]2)c(=O)[nH]c2ccccc12 | NO
* O=c1[nH]c2ccccc2cc1-c1nc2ccccc2[nH]1 | NO
* CN1CCN(c2ccc3[nH]c(-c4c(N)c5cc(NC(=O)c6ccccc6)ccc5[nH]c4=O)nc3c2)CC1 | NO

* * *

Molecular target: Platelet-derived growth factor receptor beta (Homo sapiens)
Sequence (P09619 whole entry): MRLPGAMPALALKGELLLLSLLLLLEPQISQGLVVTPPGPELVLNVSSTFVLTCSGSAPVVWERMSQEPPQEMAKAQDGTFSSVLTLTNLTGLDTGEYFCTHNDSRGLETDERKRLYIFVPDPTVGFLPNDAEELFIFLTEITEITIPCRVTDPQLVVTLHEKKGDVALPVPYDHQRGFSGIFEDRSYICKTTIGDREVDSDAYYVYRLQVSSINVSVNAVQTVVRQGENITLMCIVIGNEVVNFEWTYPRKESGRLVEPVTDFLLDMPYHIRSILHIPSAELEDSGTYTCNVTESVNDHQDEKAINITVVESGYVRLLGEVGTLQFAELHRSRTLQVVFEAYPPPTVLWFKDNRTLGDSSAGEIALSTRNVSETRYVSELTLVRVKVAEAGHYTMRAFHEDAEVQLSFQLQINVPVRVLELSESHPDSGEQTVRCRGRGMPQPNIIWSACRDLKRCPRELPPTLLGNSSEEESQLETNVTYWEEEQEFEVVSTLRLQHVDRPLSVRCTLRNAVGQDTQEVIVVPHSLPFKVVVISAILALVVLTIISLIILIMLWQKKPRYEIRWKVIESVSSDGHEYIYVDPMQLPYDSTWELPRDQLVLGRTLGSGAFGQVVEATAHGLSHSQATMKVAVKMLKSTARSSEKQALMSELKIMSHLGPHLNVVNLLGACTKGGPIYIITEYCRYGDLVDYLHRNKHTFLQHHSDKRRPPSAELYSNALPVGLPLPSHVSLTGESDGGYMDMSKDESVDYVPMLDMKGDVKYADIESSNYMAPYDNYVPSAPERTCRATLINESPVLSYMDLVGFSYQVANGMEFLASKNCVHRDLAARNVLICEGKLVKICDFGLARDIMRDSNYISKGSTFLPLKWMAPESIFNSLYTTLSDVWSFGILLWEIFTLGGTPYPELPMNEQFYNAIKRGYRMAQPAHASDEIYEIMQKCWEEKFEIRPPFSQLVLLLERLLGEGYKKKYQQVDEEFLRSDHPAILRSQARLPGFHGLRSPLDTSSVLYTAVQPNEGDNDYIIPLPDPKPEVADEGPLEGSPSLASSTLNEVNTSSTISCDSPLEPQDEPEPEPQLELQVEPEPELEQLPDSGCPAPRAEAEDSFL
Assay: Inhibition of human recombinant PDGFRbeta
pIC50: −log10 of the molar value.
I would appreciate it if you labelled entries True when pIC50 is 9 or higher, otherwise False.

• Cn1c(-c2c(O)c3ccccc3[nH]c2=O)nc2ccccc21 = False
• CN1CCN(c2ccc3[nH]c(=O)c(-c4nc5ccccc5[nH]4)c(N)c3c2)CC1 = False
• CN1CCN(c2ccc3[nH]c(-c4c(N)c5c(Cl)cccc5[nH]c4=O)nc3c2)CC1 = True

* * *

Molecular target: Vascular endothelial growth factor receptor 2 (Homo sapiens, UniProt P35968)
Sequence (P35968 whole entry): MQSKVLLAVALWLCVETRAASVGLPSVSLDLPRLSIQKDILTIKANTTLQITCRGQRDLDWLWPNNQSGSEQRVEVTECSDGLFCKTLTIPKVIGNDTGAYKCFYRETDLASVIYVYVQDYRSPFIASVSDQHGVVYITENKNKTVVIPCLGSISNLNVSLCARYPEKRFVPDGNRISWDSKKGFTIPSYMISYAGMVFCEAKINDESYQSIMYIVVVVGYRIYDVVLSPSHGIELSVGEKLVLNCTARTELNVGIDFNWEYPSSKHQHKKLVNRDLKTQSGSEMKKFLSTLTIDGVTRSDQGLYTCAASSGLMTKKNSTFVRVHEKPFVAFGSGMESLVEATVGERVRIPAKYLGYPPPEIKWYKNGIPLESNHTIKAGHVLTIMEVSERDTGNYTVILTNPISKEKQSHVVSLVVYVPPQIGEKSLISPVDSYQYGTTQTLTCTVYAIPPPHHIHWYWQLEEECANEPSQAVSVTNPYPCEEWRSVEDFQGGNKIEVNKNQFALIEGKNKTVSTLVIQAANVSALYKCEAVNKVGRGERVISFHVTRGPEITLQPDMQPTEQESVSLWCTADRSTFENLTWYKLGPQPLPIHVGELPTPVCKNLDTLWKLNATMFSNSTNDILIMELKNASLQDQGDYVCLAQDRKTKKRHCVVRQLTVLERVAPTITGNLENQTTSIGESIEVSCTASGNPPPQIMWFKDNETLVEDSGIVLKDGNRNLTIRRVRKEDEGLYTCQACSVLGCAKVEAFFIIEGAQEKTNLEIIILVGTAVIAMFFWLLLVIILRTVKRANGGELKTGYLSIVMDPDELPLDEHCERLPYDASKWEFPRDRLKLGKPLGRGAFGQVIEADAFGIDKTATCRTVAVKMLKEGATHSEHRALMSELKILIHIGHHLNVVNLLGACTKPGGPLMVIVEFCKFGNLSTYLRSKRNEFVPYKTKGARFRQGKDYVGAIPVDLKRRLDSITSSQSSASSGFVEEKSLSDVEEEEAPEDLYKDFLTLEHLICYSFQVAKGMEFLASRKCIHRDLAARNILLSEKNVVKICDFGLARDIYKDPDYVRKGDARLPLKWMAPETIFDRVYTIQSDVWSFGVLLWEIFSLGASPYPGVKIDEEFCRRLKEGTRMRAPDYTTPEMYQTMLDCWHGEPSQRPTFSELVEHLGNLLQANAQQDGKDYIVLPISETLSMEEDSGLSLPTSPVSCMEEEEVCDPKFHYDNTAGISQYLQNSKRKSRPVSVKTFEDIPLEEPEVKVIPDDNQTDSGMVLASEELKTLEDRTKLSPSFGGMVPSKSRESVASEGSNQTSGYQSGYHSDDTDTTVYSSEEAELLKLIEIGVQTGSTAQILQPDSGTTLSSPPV
Define the label as Satisfied when IC50 is strictly less than 70 nM and as Not satisfied in all remaining cases.

- CN1CCCN(c2ccc3[nH]c(-c4c(N)c5ccccc5[nH]c4=O)nc3c2)CC1: Satisfied
- CN1CCN(c2ccc3[nH]c(-c4c(N)c5cc(NC(=O)c6ccccc6)ccc5[nH]c4=O)nc3c2)CC1: Not satisfied
- CNc1cccc2[nH]c(=O)c(-c3nc4ccc(N5CCN(C)CC5)cc4[nH]3)c(N)c12: Satisfied
- CN1CCN(C(=O)c2ccc3[nH]c(-c4c(N)c5ccccc5[nH]c4=O)nc3c2)CC1: Satisfied
- Nc1c(-c2nc3ccc(OCCN4CCOCC4)cc3[nH]2)c(=O)[nH]c2ccccc12: Satisfied
- CN1CCCC(Oc2cccc3[nH]c(=O)c(-c4nc5ccccc5[nH]4)c(N)c23)C1 (configuration not stated): Satisfied
- CN1CCN(c2ccc3[nH]c(-c4c(N)c5c(F)cc(F)cc5[nH]c4=O)nc3c2)CC1: Not satisfied

* * *

Molecular target: Platelet-derived growth factor receptor beta (Homo sapiens)
Assay: Inhibition of human recombinant PDGFRbeta
pIC50: −log10 of the molar value.
I would appreciate it if you labelled entries 1.0 when pIC50 is 9 or higher, otherwise 0.0.

• CN1CCN(c2ccc3nc(-c4c(N)c5cc(F)c(N(C)C)cc5[nH]c4=O)[nH]c3c2)CC1 = 0.0
• CN1CCCC(Oc2cccc3[nH]c(=O)c(-c4nc5ccccc5[nH]4)c(N)c23)C1 (stereo unspecified) = 1.0
• Cn1c(=O)c(-c2nc3ccccc3[nH]2)c(O)c2ccccc21 = 0.0
• CCC1CCN(C)C(Nc2c(-c3nc4ccccc4[nH]3)c(=O)[nH]c3ccccc23)C1 (stereo unspecified) = 1.0
• CN(C)[C@H]1CCN(c2ccc3[nH]c(-c4c(N)c5ccccc5[nH]c4=O)nc3c2)C1 = 0.0
• CNc1cccc2[nH]c(=O)c(-c3nc4ccc(N5CCN(C)CC5)cc4[nH]3)c(N)c12 = 0.0
• CN1CCN(c2ccc3[nH]c(-c4c(N)c5ccccc5[nH]c4=O)nc3c2)CC1 = 0.0
• CN1CCN(c2ccc3[nH]c(-c4c(N)c5cc(Cl)ccc5[nH]c4=O)nc3c2)CC1 = 0.0
• O=c1[nH]c2ccccc2cc1-c1nc2ccccc2[nH]1 = 0.0
• CN1CCN(c2ccc3[nH]c(-c4c(N)c5cc(NC(=O)c6ccccc6)ccc5[nH]c4=O)nc3c2)CC1 = 0.0
• CN1CCN(c2ccc3[nH]c(-c4c(N)c5cc(F)c(F)cc5[nH]c4=O)nc3c2)CC1 = 0.0
• CN1CCN(c2ccc3[nH]c(-c4c(N)c5c(F)cc(F)cc5[nH]c4=O)nc3c2)CC1 = 0.0
• CN1CCN(c2ccc3nc(-c4c(N)c5cc(C(=O)NCc6ccccc6)ccc5[nH]c4=O)[nH]c3c2)CC1 = 1.0
• Cn1c(-c2c(O)c3ccccc3n(C)c2=O)nc2ccccc21 = 0.0

* * *

Quick reference for pIC50 among some compounds
Molecular target: Fibroblast growth factor receptor 1 (Homo sapiens, UniProt P11362)
Sequence (P11362 whole entry): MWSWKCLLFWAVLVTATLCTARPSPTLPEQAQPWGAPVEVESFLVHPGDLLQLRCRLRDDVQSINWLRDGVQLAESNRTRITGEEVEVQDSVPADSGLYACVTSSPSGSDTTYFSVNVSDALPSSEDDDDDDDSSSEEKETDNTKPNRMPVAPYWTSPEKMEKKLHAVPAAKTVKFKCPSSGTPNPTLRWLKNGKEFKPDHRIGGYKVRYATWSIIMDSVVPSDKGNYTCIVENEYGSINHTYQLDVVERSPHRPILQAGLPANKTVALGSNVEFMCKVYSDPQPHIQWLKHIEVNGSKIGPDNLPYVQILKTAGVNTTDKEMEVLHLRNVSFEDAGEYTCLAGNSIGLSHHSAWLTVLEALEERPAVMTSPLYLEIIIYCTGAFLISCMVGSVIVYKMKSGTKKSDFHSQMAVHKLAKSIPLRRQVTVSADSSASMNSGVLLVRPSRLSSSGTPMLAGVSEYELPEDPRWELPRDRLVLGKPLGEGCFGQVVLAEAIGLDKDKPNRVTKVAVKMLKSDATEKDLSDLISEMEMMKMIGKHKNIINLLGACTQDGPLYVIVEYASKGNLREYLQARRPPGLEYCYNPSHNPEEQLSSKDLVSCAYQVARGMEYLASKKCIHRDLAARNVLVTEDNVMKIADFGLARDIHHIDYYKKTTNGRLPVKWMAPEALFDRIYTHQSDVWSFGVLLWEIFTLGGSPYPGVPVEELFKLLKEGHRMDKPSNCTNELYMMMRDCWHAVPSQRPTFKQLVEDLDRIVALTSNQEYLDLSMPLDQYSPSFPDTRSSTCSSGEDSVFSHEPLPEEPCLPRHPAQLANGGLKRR
Assay: Inhibition of human recombinant FGFR1
pIC50: −log10 of the molar value.
property-label: pIC50

- Cc1ccc2nc(-c3c(N)c4ccccc4[nH]c3=O)[nH]c2c1: 7.10
- CN1CCN(c2ccc3[nH]c(-c4c(N)c5cc(F)c(F)cc5[nH]c4=O)nc3c2)CC1: 6.96
- Cc1cc2nc(-c3c(N)c4ccccc4[nH]c3=O)[nH]c2cc1C: 7.15
- CN1CCN(c2ccc3[nH]c(-c4c(N)c5cc(N(C)C)ccc5[nH]c4=O)nc3c2)CC1: 7.08
- CNc1c(-c2nc3ccccc3[nH]2)c(=O)[nH]c2ccccc12: 6.92
- O=c1[nH]c2ccccc2c(O)c1-c1nc2ccccc2[nH]1: 7.05
